test system: rodent lifetime carcinogenesis bioassay, tumor incidence TD50; experiment: carcinogenic potency in animals, long-term in vivo studies, CPDB compilation (AID 1745844); settings: rat; strain Fischer 344; males; in feed; site: subcutaneous tissue; lesion: fibroma; dosed 102 weeks; study length 104 weeks
Test readout: TD50

Record request: TD50 value, item "Cc1ccccc1N" 33.3 mg/kg/day

====

test system: rodent lifetime carcinogenesis bioassay, tumor incidence TD50; experiment: carcinogenic potency in animals, long-term in vivo studies, CPDB compilation (AID 1745844); settings: rat; strain Fischer 344; males; inhaled; site: tongue; lesion: squamous-cell papilloma; dosed 104 weeks; study length 104 weeks
Test readout: TD50 (mg/kg/day)
Write the value in mg/kg/day as a bare number.

What reported TD50 corresponds to "C=CC(=C)Cl" on rodent lifetime carcinogenesis bioassay, tumor incidence TD50? 15.6
